Test system: S. aureus Linezolid resistant
Assay: MIC by broth microdilution, linezolid resistant S. aureus
Format: cell-based, Staphylococcus aureus
Settings: S. aureus (3 isolates) Linezolid resistant
Protocol: Whole-cell antimicrobial activity was determined by broth microdilution. Test compounds were dissolved in DMSO and diluted 1:10 in water to produce a 64 mcg/ml stock solution. Using a 96 well microtitre plate, a Microlab AT Plus 2 (Hamilton Co., Reno, Nev.) serially diluted 50 ul of the stock solution into an appropriate broth medium. […] The minimum inhibitory concentration (MIC) was determined as the lowest concentration of compound that inhibited visible growth.
READOUT_TYPE: MIC Range

Example compounds with recorded MIC Range:
• CO/N=C(\C(=O)N[C@@H]1C(=O)N2C(C(=O)O)=C(COC(N)=O)CS[C@H]12)c1ccco1 = >16 µg/mL
• CC[C@H]1OC(=O)[C@H](C)[C@@H](O[C@H]2C[C@@](C)(OC)[C@@H](O)[C@H](C)O2)[C@H](C)[C@@H](O[C@@H]2O[C@H](C)C[C@H](N(C)C)[C@H]2O)[C@](C)(O)C[C@@H](C)CN(C)[C@H](C)[C@@H](O)[C@]1(C)O = 0.5 µg/mL

### Prompt Report MIC Range for C=C[C@]1(C)C[C@@H](OC(=O)CSC2CC3CCC(C2)N3C)[C@]2(C)C(C)CC[C@]3(CCC(=O)[C@H]32)[C@@H](C)[C@@H]1O (stereo partly drawn) please.
### Response 1 to 2 µg/mL

====

Below, each entry is listed with its recorded MIC Range.
Test system: S. aureus Linezolid resistant
Assay: MIC by broth microdilution, linezolid resistant S. aureus
Assay type: cell-based, Staphylococcus aureus
Conditions: S. aureus (3 isolates) Linezolid resistant

Example compounds with recorded MIC Range:
- CC[C@H]1OC(=O)[C@H](C)C(=O)[C@H](C)[C@@H](O[C@@H]2O[C@H](C)C[C@H](N(C)C)[C@H]2O)[C@](C)(OC)C[C@@H](C)C(=O)[C@H](C)[C@H]2N(CCCCn3cnc(-c4cccnc4)c3)C(=O)O[C@]12C [Telithromycin]: 0.03 to 0.06 µg/mL
- C[C@H]1COc2c(N3CCN(C)CC3)c(F)cc3c(=O)c(C(=O)O)cn1c23 [Levofloxacin]: 16 µg/mL

Proceed to the following item.
### Prompt Report MIC Range for CC1(C)S[C@@H]2[C@H](NC(=O)[C@H](N)c3ccc(O)cc3)C(=O)N2[C@H]1C(=O)O [Amoxicillin] please.
### Response >32 µg/mL

====

Below, each entry is listed with its recorded MIC Range.
System: S. aureus VISA (vancomycin intermediate Staphylococcus aureus)
Experiment: MIC by broth microdilution, VISA
Type: cell-based
Settings: S. aureus (4 isolates) VISA (vanc. MIC 4), second part of table

Example molecules with recorded MIC Range:
• C=C[C@]1(C)C[C@@H](OC(=O)CSC2CC3CCC(C2)N3C)[C@]2(C)C(C)CC[C@]3(CCC(=O)[C@H]32)[C@@H](C)[C@@H]1O (stereo partly shown) = 0.06 to 1 µg/mL
• CC1(C)S[C@@H]2[C@H](NC(=O)[C@H](N)c3ccc(O)cc3)C(=O)N2[C@H]1C(=O)O = 8 to 32 µg/mL
• C[C@H]1COc2c(N3CCN(C)CC3)c(F)cc3c(=O)c(C(=O)O)cn1c23 = 8 to 64 µg/mL

Proceed to the following item.
### Prompt Report MIC Range for CO/N=C(\C(=O)N[C@@H]1C(=O)N2C(C(=O)O)=C(COC(N)=O)CS[C@H]12)c1ccco1 please.
### Response >16 µg/mL
